Tested Target: α4β7 (Homo sapiens, UniProt P13612+P26010)
Construct: endogenous in cells; host or cells: RPMI 8866 cells
Sequence (P13612 34-1032): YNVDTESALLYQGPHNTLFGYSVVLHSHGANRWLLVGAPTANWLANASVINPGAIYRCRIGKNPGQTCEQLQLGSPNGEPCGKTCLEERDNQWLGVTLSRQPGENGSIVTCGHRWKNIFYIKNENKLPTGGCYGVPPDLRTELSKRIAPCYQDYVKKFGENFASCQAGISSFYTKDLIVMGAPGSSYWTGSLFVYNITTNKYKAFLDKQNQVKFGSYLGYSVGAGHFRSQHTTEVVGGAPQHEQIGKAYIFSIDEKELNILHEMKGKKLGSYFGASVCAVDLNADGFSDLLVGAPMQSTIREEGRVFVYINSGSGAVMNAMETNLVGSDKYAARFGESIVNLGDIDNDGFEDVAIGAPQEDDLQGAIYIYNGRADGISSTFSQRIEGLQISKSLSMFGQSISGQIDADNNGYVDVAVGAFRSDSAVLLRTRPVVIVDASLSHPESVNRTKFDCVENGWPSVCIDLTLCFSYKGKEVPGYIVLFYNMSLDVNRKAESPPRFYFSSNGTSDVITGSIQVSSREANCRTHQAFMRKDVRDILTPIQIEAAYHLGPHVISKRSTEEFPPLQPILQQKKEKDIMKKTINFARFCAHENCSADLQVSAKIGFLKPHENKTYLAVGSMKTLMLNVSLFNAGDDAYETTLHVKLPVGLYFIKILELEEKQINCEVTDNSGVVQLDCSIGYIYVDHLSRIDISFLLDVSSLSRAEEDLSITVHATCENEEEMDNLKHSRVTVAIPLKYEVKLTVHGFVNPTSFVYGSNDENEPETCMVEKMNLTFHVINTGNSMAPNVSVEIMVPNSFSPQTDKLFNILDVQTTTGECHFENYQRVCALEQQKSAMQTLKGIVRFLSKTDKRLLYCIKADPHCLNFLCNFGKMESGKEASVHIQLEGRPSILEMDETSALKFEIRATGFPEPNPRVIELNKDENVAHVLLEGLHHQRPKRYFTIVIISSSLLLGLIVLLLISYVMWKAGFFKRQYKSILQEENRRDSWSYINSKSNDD
Sequence (P26010 20-798): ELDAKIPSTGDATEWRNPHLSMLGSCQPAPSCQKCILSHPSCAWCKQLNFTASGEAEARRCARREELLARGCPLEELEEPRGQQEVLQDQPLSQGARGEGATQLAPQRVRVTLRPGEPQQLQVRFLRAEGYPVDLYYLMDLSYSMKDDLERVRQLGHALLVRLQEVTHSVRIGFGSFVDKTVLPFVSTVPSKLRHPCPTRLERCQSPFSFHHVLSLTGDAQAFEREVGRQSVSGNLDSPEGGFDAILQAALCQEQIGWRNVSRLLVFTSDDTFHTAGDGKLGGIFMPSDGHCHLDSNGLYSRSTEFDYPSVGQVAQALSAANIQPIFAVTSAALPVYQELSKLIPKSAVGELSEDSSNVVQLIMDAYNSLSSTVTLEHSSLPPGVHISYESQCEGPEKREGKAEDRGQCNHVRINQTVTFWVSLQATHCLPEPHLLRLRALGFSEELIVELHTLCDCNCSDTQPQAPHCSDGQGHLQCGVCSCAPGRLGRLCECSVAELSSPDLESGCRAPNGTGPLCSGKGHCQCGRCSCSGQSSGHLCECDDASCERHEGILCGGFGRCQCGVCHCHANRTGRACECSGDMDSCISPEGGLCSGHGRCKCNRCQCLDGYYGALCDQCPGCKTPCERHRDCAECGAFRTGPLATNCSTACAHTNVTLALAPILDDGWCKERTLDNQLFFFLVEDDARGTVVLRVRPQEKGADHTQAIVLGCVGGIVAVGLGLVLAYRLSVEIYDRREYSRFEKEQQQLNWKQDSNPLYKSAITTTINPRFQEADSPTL
Assay Overview: Cell adhesion assay, RPMI8866 cells on MAdCAM coated plates (Example 7)
Format: cell-based
Reported Conditions: RPMI8866 cells adhering to recombinant human MAdCAM; Table 4 comparative compounds; read-out: CA Assay (Example 7)
Quantity: IC50

Field: example entries. Status: answers known.
Cc1ccccc1-c1cccc([C@H](CC(=O)O)NC(=O)[C@H](CC(C)C)n2ccccc2=O)c1; > 500 nM
Cc1ccc([C@@H](C(=O)N[C@@H](CC(=O)O)c2cncc(-c3c(C)cccc3C)c2)N2CC(C)CCC2=O)cc1 (stereo partly shown); > 500 nM

Fill in IC50 for each of the 5 compounds listed.
1. COC[C@@H](C(=O)N[C@@H](CC(=O)O)c1cccc(-c2c(C)cccc2C)c1)n1ccc(C)cc1=O
2. Cc1cccc(C)c1-c1cccc([C@H](CC(=O)O)NC(=O)[C@H](CC(C)C)n2cc(CN3CC(F)C3)ccc2=O)c1 [drawing 594]
3. Cc1ccccc1-c1cc([C@H](CC(=O)O)NC(=O)[C@H](CC(C)C)n2ccc(C(F)(F)F)cc2=O)cnc1C
4. CC(C)C[C@@H](C(=O)N[C@@H](CC(=O)O)c1ccc(-c2ccccc2)cc1)n1cc(CCN(C)C)c(C(F)(F)F)cc1=O
5. Cc1cccc(C)c1-c1cccc([C@H](CC(=O)O)NC(=O)[C@H](CC(C)C)n2ccc(CCN(C)C)cc2=O)c1

> 500 nM
> 50 nM
> 100 nM
> 500 nM
10 to 50 nM

Ref: patent US11104661B1
